- assay.comment: Agilent ZORBAX 300 SB-C18, 150 × 1 mm, 3.5 µm; A: water + 0.01% heptafluorobutyric acid; B: acetonitrile + 0.01% heptafluorobutyric acid; gradient (min/%B) 0/0 100/90
- experimental.context: stereoisomer not certain
measured.property: LC retention time (min)

Worked set:
CCc1ccc(C(c2c[nH]c3ccccc23)c2c[nH]c3ccccc23)cc1; 18.2
CC(C)CNC(=O)C(=O)NC1CC(C)(C)NC(C)(C)C1; 8.6
CC1(c2ccccc2)OCOC1=CC[N+](C)(C)C (centres undefined); 9.45
O=C(Nc1ccccn1)c1cccc(N2C(=O)CCC2=O)c1; 8.59
CCc1ccccn1; 6.68

1: CCCCN1CNC(=S)N(CCc2ccccc2)C1
2: NCC(O)CO (centres undefined)
3: CCn1cc(-c2ccn[nH]2)cn1
4: CC(N)=O
Query string: Endpoint returns the given compounds ordered by ascending LC retention time. Your reply should list the labels following the order given in the request.
Result string: 4, 2, 3, 1

a: Cn1c(=O)n(C)c(=O)n(CC(=O)N2CCCCC2)c1=O
b: O=C(O)c1cc(=O)[nH]c(=O)[nH]1
Query string: Which entry has a larger number for LC retention time, a or b ? Selection: enter the item's label.
Result string: a

1: COC(=O)CCC(=O)Nc1ccc(C)cc1C
2: Cc1cc(C)nc(NC(N)=NCc2cccnc2)n1
Query string: Which entry has a larger number for LC retention time, 1 or 2 ? Selection: enter the item's label.
Result string: 1
(1: 11.7 min, 2: 7.87 min)

I: O=C(O)CC(CNC(=O)CCCCCN1C(=O)c2ccccc2C1=O)c1ccccc1 (centres undefined)
II: O=C1OCc2c1[nH]c(=O)[nH]c2=O
Query string: Consider entries I and II . Which has the numerically lower LC retention time? Selection: enter the item's label.
Result string: II

1: CCOc1ccc(N2C(=O)CC(N(Cc3ccc4c(c3)OCO4)C(C)=O)C2=O)cc1 (centres undefined)
2: CCCCNCCCC
3: O=C(O)Cc1c[nH]c(=O)[nH]c1=O
Query string: Endpoint returns the given compounds ordered by ascending LC retention time. Your reply should list the labels following the order given in the request.
Result string: 3, 2, 1

A: COc1cccc(C2CC(=O)Nc3cc4c(cc32)OCO4)c1OC (centres undefined)
B: COc1cccc2ccc(C)nc12
Query string: Which entry has a larger number for LC retention time, A or B ? Selection: enter the item's label.
Result string: A
(A: 12 min, B: 7.77 min)

a: Nc1ccc2c(c1)nc(-c1ccccc1)c1cc(N)ccc12
b: COC(=O)c1ccc2[nH]c3c(c2c1)CCCC3
Query string: Consider entries a and b . Which has the numerically lower LC retention time? Selection: enter the item's label.
Result string: a

1: S=c1[nH]ccc2ccccc12
2: Cc1ccccn1
Query string: Consider entries 1 and 2 . Which has the numerically lower LC retention time? Selection: enter the item's label.
Result string: 2
(2: 6.01 min, 1: 9.61 min)

###

- assay.comment: Agilent ZORBAX 300 SB-C18, 150 × 1 mm, 3.5 µm; A: water + 0.01% heptafluorobutyric acid; B: acetonitrile + 0.01% heptafluorobutyric acid; gradient (min/%B) 0/0 100/90
- experimental.context: stereoisomer not certain
measured.property: LC retention time (min)

Worked set:
CC(C)c1ccc(CC(NC(=O)c2ccccc2)C(=O)NCC(=O)O)cc1 (configuration not stated); 12.5
CC(=NNC(=O)C[n+]1ccccc1)c1ccccc1; 8.76
CC(C)N1CCNCC1; 6.94

A: CC(=O)Nc1coc2ccccc12
B: CCOC1COCC1N (configuration not stated)
C: Cc1ccc(N2CCN(C(=O)C(c3ccccc3)c3ccccc3)CC2)cc1C
Query string: Endpoint returns the given compounds ordered by ascending LC retention time. Your reply should list the labels following the order given in the request.
Result string: B, A, C

A: NC(CCC(=O)OCc1ccccc1)C(=O)O (configuration not stated)
B: Cc1ccc(-n2c(C)cc(C=CC(=O)O)c2C)cc1
Query string: Consider entries A and B . Which has the numerically lower LC retention time? Selection: enter the item's label.
Result string: A

P: Nc1ccc(C(=O)Nc2cccc3ccccc23)cc1
Q: CC(C)CNCCN1CCOCC1
Query string: Consider entries P and Q . Which has the numerically lower LC retention time? Selection: enter the item's label.
Result string: Q
